The reported measurements were obtained from the RNAGym collection of RNA variant scans (doi:10.1021/acssynbio.7b00057).

B1: Pistol ribozyme (parent)
chain: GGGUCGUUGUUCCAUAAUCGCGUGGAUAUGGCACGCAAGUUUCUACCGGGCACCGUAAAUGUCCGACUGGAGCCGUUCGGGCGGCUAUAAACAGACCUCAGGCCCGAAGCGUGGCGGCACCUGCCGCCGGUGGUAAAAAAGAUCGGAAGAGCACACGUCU

Variants of: B1
protocol-text: aptazyme ON/OFF ratio, guanine; higher = stronger switching; co-transcriptional cleavage with and without guanine
measured-quantity: aptazyme ON/OFF ratio
Number only, no unit.

Data point: U7A U8C G9C U10C C12U C13U ; aptazyme ON/OFF ratio = 1.04

Note to self: aptazyme ON/OFF ratio recorded for G9U U10A U11G C12U was 1.27

Sample U8A G9U U10G U11G C12U C13A ; aptazyme ON/OFF ratio observed: 1.32

U7A U8G G9U U10C C12U has a reported aptazyme ON/OFF ratio of 1.66

Note to self: aptazyme ON/OFF ratio recorded for U10A U11A C12A C13U was 1.47

# aptazyme ON/OFF ratio of U7C U10A U11C C13A = 1.02

The reported value for U7A G9C U10C C12U C13A in terms of aptazyme ON/OFF ratio is 1.04

The recorded aptazyme ON/OFF ratio for entry U7G U8A G9C U10C C12U C13U equals 1.01

Lab book: aptazyme ON/OFF ratio of U7C U8G U11G C12U C13A noted as 1.11

Recorded aptazyme ON/OFF ratio (variant U8G G9A U11G C13U ): 1.04

U7C G9A C12U yielded aptazyme ON/OFF ratio of 1.16

Recorded aptazyme ON/OFF ratio (variant U8A G9C U10G U11C C12U C13G ): 1.18

U7G U8A G9A U10A U11A C13A yielded aptazyme ON/OFF ratio of 1.09

Data point: U7G U8G G9C U10C C12A C13G ; aptazyme ON/OFF ratio = 1.27

For record U7A U8G G9A U10A U11C C12A C13U the listed aptazyme ON/OFF ratio is 1.16

Entry U7A U8G G9C U10A C12U C13G — recorded aptazyme ON/OFF ratio = 1.21

The recorded aptazyme ON/OFF ratio for entry U7A U8A U10C U11G C13U equals 1.17

The recorded aptazyme ON/OFF ratio for entry U7G U8G U10A U11G C12G C13A equals 1.15

For this variant ( U8A G9U U10C U11C C13G ), measured aptazyme ON/OFF ratio is 1.01

Measured aptazyme ON/OFF ratio, U7A U8G G9A U10C U11A C12A C13A : 1.12

GET /value?item= U8C G9U C12U &field=aptazyme ON/OFF ratio returns 1.42

U7G U8C U10C U11C yielded aptazyme ON/OFF ratio of 1.14
